Assay: Cellular Toxicity (caspase-3) SHSY5Y (AID 657);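 further: cells exposed to compound for 16 hours at 37 °C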
Conditions: SH-SY5Y caspase-3 activation; series mostly up to 91.7 µM
Active and inactive are the calls of the source. The call rests on the fitted dose curve; in most records, active means well fitted activation curve with a large enough effect; inconclusive means small, poorly fitted or top-dose-only effect; inactive means flat fitted curve, though single readings scatter.
Log the outcome using a class from 1.0 for active, 0.0 for inactive

Recorded results for 4 compounds are shown here.
NC(N)=O: 0.0
O=c1n(CC2CO2)c(=O)n(CC2CO2)c(=O)n1CC1CO1 (stereo not drawn): 1.0
OCc1ccccc1: 0.0
CC1=CC(=O)NS(=O)(=O)O1: 0.0

Which result was noted for this compound in the test: O=P(O)(O)O
0.0

Tell me the assay call for Oc1cccc(O)c1O please.
0.0

Given CCOC(C)OCC , state the outcome it received in this test.
0.0
